- Tested on: Staphylococcus aureus
- assay-setup: Concentration 20 uM; ASSAY_TEST Inhibition of Bacterial Growth; detection method Absorption (OD600); MEDIA CAMHB; plate type 384well; NBS; CORNING #3640; time 18 hr
Entries with a potency or affinity are not part of this list.
In plain terms, low Inhibition, meaning strictly below 10%, gives satisfied, and everything else gives not satisfied.

Sample answers from the record:
Cc1occc(=O)c1O :: not satisfied
CN(CCOc1ccc(NS(C)(=O)=O)cc1)CCc1ccc(NS(C)(=O)=O)cc1 [DOFETILIDE] :: not satisfied
CN(C)CCCN1c2ccccc2CCc2ccc(Cl)cc21.Cl [CLOMIPRAMINE HYDROCHLORIDE] :: not satisfied
CCC1=C[C@H]2CN(C1)Cc1c([nH]c3ccccc13)[C@@](C(=O)OC)(c1cc3c(cc1OC)N(C)[C@H]1[C@@](O)(C(=O)OC)[C@H](OC(C)=O)[C@]4(CC)C=CCN5CC[C@]31[C@@H]54)C2.O=C(O)C(O)C(O)C(=O)O.O=C(O)C(O)C(O)C(=O)O :: not satisfied
CC[C@@H]1C(=O)OC[C@@H]1Cc1cncn1C.Cl [PILOCARPINE HYDROCHLORIDE] :: not satisfied
Cl.O.O=C1N(c2ccccc2)c2ccccc2C1(Cc1ccncc1)Cc1ccncc1 :: satisfied
Cc1[nH]c(=O)c(C#N)cc1-c1ccncc1 :: not satisfied
Cc1cccc(CCN2CCC(C(=O)c3ccc(NS(C)(=O)=O)cc3)CC2)n1.Cl.Cl :: not satisfied

hey, is Inhibition for `CCC1(c2ccccc2)C(=O)NCNC1=O` lower than 10% or not? not satisfied

Just wondering, is Inhibition of `CC(=O)Nc1ccc(CC(=O)O)cc1` below 10%? satisfied

Criterion: Inhibition strictly below 10%. Is it met by `CCC(C)(C)/N=C(\NC#N)Nc1cccnc1` ? satisfied

In plain terms, does `C=C(CC)C(=O)c1ccc(OCC(=O)O)c(Cl)c1Cl` come in under 10% for Inhibition? not satisfied

In plain terms, does CCCN1CCCC[C@H]1C(=O)Nc1c(C)cccc1C.Cl [ROPIVACAINE HYDROCHLORIDE] come in under 10% for Inhibition? not satisfied

Please indicate whether the reported Inhibition of CC(=O)O.NCc1ccc(S(N)(=O)=O)cc1 [MAFENIDE ACETATE] is strictly below 10%. not satisfied

Here's an entry: CC(C(=O)O)c1cccc(C(=O)c2ccccc2)c1 (centres undefined) . Is its Inhibition below 10%? satisfied

Inhibition under 10%? Item: `Oc1ccc(/C=C/c2cc(O)cc(O)c2)cc1` not satisfied

Hello, I'm reviewing records and need to know if Inhibition of O=c1[nH]c(=O)n(C2CCCO2)cc1F (centres undefined) is below 10%. Could you check? not satisfied

Inhibition under 10%? Item: `O=C(O)c1cccnc1` satisfied

Record `COC(=O)C1=C(C)NC(C)=C(C(=O)O[C@@H]2CCCN(Cc3ccccc3)C2)[C@@H]1c1cccc([N+](=O)[O-])c1.Cl` : is its Inhibition strictly below 10%? satisfied

src = ChEMBL document CHEMBL4513141
